Reference source: ChEMBL document CHEMBL5678806

Target: UniProt P11362
Sequence (P11362 whole entry): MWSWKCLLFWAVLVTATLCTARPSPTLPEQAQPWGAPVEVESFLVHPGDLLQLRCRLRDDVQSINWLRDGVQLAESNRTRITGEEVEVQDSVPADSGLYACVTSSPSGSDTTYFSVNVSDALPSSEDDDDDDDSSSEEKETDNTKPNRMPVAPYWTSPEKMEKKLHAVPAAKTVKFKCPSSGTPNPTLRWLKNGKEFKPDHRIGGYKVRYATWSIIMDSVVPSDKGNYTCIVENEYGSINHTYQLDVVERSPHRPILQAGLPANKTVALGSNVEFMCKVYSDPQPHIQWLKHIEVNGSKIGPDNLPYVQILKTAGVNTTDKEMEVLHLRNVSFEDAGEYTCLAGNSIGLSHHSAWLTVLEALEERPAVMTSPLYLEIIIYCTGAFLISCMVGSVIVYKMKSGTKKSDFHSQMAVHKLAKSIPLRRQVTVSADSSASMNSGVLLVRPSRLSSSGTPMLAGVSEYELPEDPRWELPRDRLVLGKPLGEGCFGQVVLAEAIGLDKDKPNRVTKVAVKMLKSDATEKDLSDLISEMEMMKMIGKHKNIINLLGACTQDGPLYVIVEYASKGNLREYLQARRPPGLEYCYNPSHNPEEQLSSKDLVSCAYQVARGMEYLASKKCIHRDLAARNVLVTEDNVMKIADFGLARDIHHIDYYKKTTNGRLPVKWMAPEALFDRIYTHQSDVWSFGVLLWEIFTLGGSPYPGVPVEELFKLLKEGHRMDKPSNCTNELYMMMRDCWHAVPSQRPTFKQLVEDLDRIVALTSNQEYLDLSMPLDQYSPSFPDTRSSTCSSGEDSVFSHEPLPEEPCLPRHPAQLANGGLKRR
pIC50: −log10 of the molar value.
MEASURED ATTRIBUTE: pIC50

* CN1CCN(c2ccc(OC(F)(F)F)c(Nc3ncc4c(n3)-c3c(c(C(N)=O)nn3CCO)CC4)c2)CC1 [ONVANSERTIB] | < 5.00

* * *

Assay: Antiproliferative activity against human GM14788 cells assessed as inhibition of cell growth incubated for 72 hrs by cell-titer glo assay
Format: functional, cell-based
Conditions: GM14788, 72 h
pIC50: −log10 of the molar value.
MEASURED ATTRIBUTE: pIC50

* CN1CCN(c2ccc(OC(F)(F)F)c(Nc3ncc4c(n3)-c3c(c(C(N)=O)nn3CCO)CC4)c2)CC1 | 7.09

* * *

Target: Vascular endothelial growth factor receptor 3 (Homo sapiens, UniProt P35916)
Sequence (P35916 whole entry): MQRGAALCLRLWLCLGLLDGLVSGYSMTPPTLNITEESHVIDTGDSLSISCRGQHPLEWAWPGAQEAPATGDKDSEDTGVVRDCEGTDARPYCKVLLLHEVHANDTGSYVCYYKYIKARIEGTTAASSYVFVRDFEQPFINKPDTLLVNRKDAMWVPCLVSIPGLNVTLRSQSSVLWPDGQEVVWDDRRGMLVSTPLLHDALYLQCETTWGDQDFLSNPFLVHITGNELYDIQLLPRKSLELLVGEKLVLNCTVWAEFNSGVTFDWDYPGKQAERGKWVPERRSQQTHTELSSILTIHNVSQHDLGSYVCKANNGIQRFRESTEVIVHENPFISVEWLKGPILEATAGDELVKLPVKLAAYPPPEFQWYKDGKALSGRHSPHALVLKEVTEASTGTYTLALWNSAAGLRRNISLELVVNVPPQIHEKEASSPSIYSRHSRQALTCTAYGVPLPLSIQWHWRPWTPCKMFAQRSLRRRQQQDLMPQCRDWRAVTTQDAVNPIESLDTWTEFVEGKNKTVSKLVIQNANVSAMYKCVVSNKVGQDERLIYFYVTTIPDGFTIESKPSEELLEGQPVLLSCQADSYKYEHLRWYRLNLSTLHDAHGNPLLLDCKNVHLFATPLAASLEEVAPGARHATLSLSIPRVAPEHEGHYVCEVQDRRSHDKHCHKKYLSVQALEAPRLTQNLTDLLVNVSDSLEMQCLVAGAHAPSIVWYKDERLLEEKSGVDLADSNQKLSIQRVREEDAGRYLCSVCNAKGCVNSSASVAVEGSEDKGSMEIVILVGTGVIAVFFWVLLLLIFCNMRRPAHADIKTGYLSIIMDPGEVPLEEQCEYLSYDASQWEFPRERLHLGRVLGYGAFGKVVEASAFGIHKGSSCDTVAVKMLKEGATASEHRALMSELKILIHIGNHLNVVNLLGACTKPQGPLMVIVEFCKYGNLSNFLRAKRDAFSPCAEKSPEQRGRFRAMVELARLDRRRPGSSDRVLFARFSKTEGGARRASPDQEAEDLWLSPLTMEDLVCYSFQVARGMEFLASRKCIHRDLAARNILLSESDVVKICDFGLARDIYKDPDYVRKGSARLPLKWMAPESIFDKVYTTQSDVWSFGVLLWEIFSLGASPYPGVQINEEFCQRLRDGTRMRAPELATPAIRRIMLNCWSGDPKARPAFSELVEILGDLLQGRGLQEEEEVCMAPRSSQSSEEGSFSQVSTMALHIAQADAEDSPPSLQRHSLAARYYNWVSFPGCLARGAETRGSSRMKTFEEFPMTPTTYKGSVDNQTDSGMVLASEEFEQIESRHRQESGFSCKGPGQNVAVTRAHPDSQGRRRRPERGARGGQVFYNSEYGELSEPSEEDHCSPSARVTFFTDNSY
pIC50: −log10 of the molar value.
MEASURED ATTRIBUTE: pIC50

* CN1CCN(c2ccc(OC(F)(F)F)c(Nc3ncc4c(n3)-c3c(c(C(N)=O)nn3CCO)CC4)c2)CC1 [ONVANSERTIB] | < 5.00

* * *

Test: Half-life in male cynomolgus monkey at 5 mg/kg, po by LC-MS analysis
Assay type: ADME, organism-based, Macaca fascicularis
Details: in vivo
MEASURED ATTRIBUTE: half-life (h)

* CN1CCN(c2ccc(OC(F)(F)F)c(Nc3ncc4c(n3)-c3c(c(C(N)=O)nn3CCO)CC4)c2)CC1 [ONVANSERTIB] | 4.2

* * *

Assay: Tmax in Beagle dog at 5 mg/kg, po by LC-MS analysis
Type: ADME, organism-based, Canis lupus familiaris
Settings: in vivo
MEASURED ATTRIBUTE: Tmax (h)

• CN1CCN(c2ccc(OC(F)(F)F)c(Nc3ncc4c(n3)-c3c(c(C(N)=O)nn3CCO)CC4)c2)CC1 = 1.2

* * *

System: HCT-116
Assay: Antiproliferative activity against human HCT-116 cells assessed as inhibition of cell growth incubated for 72 hrs by cell-titer glo assay
Format: functional, cell-based
Settings: HCT-116, 72 h
pIC50: −log10 of the molar value.
MEASURED ATTRIBUTE: pIC50

* CN1CCN(c2ccc(OC(F)(F)F)c(Nc3ncc4c(n3)-c3c(c(C(N)=O)nn3CCO)CC4)c2)CC1 [ONVANSERTIB] | 7.07

* * *

Tested on: SK-N-MC
Test: Antiproliferative activity against human SK-N-MC cells assessed as inhibition of cell growth incubated for 72 hrs by cell-titer glo assay
Format: functional, cell-based
pIC50: −log10 of the molar value.
MEASURED ATTRIBUTE: pIC50

* CN1CCN(c2ccc(OC(F)(F)F)c(Nc3ncc4c(n3)-c3c(c(C(N)=O)nn3CCO)CC4)c2)CC1 | 7.14

* * *

Test: Plasma concentration in nu/nu mouse xenografted with human HL-60 cells at 60 mg/kg, po administered for 10 days relative to control
Format: ADME, organism-based
Settings: time 10 day
MEASURED ATTRIBUTE: concentration at 240 h (nM)

- CN1CCN(c2ccc(OC(F)(F)F)c(Nc3ncc4c(n3)-c3c(c(C(N)=O)nn3CCO)CC4)c2)CC1: 433

* * *

Test: Half-life in nu/nu mouse at 10 mg/kg, iv by LC-MS analysis
Assay type: ADME, organism-based
Details: in vivo
MEASURED ATTRIBUTE: half-life (min)

• CN1CCN(c2ccc(OC(F)(F)F)c(Nc3ncc4c(n3)-c3c(c(C(N)=O)nn3CCO)CC4)c2)CC1 = 54

* * *

Molecular target: Serine/threonine-protein kinase pim-1 (Homo sapiens, UniProt P11309)
Sequence (P11309 whole entry): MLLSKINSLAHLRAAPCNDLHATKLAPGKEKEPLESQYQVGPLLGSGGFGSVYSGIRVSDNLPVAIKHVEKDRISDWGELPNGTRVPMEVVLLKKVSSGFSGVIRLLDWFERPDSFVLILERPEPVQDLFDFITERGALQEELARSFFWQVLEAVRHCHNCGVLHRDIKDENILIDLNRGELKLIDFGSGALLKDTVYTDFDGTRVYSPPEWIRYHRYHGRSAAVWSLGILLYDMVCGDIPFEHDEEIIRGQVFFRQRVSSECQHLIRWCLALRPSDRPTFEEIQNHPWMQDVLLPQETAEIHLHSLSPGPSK
MEASURED ATTRIBUTE: IC50

• CN1CCN(c2ccc(OC(F)(F)F)c(Nc3ncc4c(n3)-c3c(c(C(N)=O)nn3CCO)CC4)c2)CC1 = > 10 µM

* * *

Assay: AUC in nu/nu mouse at 10 mg/kg, iv by LC-MS analysis
Assay type: ADME, organism-based
Details: in vivo
MEASURED ATTRIBUTE: AUC (µM·h)

* CN1CCN(c2ccc(OC(F)(F)F)c(Nc3ncc4c(n3)-c3c(c(C(N)=O)nn3CCO)CC4)c2)CC1 | 8.6

* * *

System: SUD4
Test: Antiproliferative activity against human SU-DHL-4 cells assessed as inhibition of cell growth incubated for 72 hrs by cell-titer glo assay
Assay type: functional, cell-based
Conditions: SU-DHL-4, 72 h
MEASURED ATTRIBUTE: IC50 (nM)

• CN1CCN(c2ccc(OC(F)(F)F)c(Nc3ncc4c(n3)-c3c(c(C(N)=O)nn3CCO)CC4)c2)CC1 = 56

* * *

Biological target: UniProt:P00533
Sequence (P00533 whole entry): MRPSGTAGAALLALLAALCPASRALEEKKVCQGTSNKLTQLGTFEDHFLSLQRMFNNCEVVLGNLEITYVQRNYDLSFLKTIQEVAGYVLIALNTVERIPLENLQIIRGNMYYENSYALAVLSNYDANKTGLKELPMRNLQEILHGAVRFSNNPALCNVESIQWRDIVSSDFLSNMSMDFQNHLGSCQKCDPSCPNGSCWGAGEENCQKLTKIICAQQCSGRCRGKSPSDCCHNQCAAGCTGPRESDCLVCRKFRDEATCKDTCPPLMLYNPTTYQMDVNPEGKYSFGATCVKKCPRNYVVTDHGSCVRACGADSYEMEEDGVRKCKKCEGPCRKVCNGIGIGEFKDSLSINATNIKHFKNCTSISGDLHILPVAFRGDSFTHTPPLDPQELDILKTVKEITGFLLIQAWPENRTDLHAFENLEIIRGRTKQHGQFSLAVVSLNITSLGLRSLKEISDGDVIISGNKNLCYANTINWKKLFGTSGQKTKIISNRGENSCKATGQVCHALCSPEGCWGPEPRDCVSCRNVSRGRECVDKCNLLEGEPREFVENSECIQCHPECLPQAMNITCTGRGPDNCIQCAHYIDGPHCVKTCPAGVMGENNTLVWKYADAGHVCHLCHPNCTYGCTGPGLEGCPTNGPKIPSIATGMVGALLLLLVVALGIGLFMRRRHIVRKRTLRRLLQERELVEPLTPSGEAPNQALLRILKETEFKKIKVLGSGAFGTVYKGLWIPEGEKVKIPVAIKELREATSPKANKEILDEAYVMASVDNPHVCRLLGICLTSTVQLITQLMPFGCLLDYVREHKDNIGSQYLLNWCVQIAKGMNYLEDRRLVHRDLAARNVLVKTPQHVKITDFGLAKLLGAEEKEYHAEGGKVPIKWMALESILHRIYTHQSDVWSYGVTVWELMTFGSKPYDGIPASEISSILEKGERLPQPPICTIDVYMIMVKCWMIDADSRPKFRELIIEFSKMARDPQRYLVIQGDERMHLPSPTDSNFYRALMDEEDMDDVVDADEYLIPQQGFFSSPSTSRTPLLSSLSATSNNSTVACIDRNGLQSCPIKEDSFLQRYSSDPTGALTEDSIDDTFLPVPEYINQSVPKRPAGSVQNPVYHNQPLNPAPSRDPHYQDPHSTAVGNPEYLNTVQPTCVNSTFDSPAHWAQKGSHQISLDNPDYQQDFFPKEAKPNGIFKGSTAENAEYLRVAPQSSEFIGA
MEASURED ATTRIBUTE: IC50

- CN1CCN(c2ccc(OC(F)(F)F)c(Nc3ncc4c(n3)-c3c(c(C(N)=O)nn3CCO)CC4)c2)CC1 [ONVANSERTIB]: > 10 µM

* * *

Experiment: Tmax in male cynomolgus monkey at 5 mg/kg, po by LC-MS analysis
Format: ADME, organism-based, Macaca fascicularis
Details: in vivo
MEASURED ATTRIBUTE: Tmax (h)

- CN1CCN(c2ccc(OC(F)(F)F)c(Nc3ncc4c(n3)-c3c(c(C(N)=O)nn3CCO)CC4)c2)CC1: 2.7

* * *

Experiment: Half-life in Beagle dog at 5 mg/kg, po by LC-MS analysis
Type: ADME, organism-based, Canis lupus familiaris
Conditions: in vivo
MEASURED ATTRIBUTE: half-life

* CN1CCN(c2ccc(OC(F)(F)F)c(Nc3ncc4c(n3)-c3c(c(C(N)=O)nn3CCO)CC4)c2)CC1 [ONVANSERTIB] | 4.6 h

* * *

Experiment: Cmax in nu/nu mouse at 10 mg/kg, iv by LC-MS analysis
Type: ADME, organism-based
Settings: in vivo
MEASURED ATTRIBUTE: Cmax

• CN1CCN(c2ccc(OC(F)(F)F)c(Nc3ncc4c(n3)-c3c(c(C(N)=O)nn3CCO)CC4)c2)CC1 = 8.3 µM

* * *

Biological target: Serine/threonine-protein kinase PAK 4 (Homo sapiens, UniProt O96013)
Sequence (O96013 whole entry): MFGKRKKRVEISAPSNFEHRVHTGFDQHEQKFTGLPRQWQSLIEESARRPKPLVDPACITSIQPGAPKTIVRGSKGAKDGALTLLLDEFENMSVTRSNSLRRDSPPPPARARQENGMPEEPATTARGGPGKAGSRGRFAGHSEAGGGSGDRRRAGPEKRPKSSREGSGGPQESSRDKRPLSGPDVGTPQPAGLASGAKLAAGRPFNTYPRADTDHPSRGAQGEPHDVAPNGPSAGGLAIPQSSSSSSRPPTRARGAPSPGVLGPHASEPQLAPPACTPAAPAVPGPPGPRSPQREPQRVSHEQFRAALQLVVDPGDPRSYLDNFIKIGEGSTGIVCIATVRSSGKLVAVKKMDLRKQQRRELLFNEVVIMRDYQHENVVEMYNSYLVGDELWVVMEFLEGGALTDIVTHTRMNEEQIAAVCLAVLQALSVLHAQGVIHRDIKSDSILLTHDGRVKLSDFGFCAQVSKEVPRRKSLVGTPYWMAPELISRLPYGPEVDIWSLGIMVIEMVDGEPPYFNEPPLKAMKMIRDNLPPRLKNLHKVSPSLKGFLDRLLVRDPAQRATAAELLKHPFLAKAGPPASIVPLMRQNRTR
MEASURED ATTRIBUTE: IC50

* CN1CCN(c2ccc(OC(F)(F)F)c(Nc3ncc4c(n3)-c3c(c(C(N)=O)nn3CCO)CC4)c2)CC1 | > 10 µM

* * *

Tested on: HCC78
Test: Antiproliferative activity against human HCC78 cells assessed as inhibition of cell growth incubated for 72 hrs by cell-titer glo assay
Format: functional, cell-based
Conditions: HCC78, 72 h
MEASURED ATTRIBUTE: IC50 (nM)

* CN1CCN(c2ccc(OC(F)(F)F)c(Nc3ncc4c(n3)-c3c(c(C(N)=O)nn3CCO)CC4)c2)CC1 [ONVANSERTIB] | 340

* * *

System: SET-2
Assay: Antiproliferative activity against human SET2 cells assessed as inhibition of cell growth incubated for 72 hrs by cell-titer glo assay
Assay type: functional, cell-based
Settings: SET-2, 72 h
MEASURED ATTRIBUTE: IC50 (nM)

• CN1CCN(c2ccc(OC(F)(F)F)c(Nc3ncc4c(n3)-c3c(c(C(N)=O)nn3CCO)CC4)c2)CC1 = 145

* * *

System: SF-539
Assay: Antiproliferative activity against human SF-539 cells assessed as inhibition of cell growth incubated for 72 hrs by cell-titer glo assay
Assay type: functional, cell-based
Conditions: SF-539, 72 h
MEASURED ATTRIBUTE: IC50 (nM)

- CN1CCN(c2ccc(OC(F)(F)F)c(Nc3ncc4c(n3)-c3c(c(C(N)=O)nn3CCO)CC4)c2)CC1: 47

* * *

Test: Half-life in nu/nu mouse at 10 mg/kg, po by LC-MS analysis
Format: ADME, organism-based
Details: in vivo
MEASURED ATTRIBUTE: half-life (h)

• CN1CCN(c2ccc(OC(F)(F)F)c(Nc3ncc4c(n3)-c3c(c(C(N)=O)nn3CCO)CC4)c2)CC1 [ONVANSERTIB] = 1.6

* * *

Assay: Half-life in Beagle dog at 5 mg/kg, iv by LC-MS analysis
Type: ADME, organism-based, Canis lupus familiaris
Conditions: in vivo
MEASURED ATTRIBUTE: half-life (h)

• CN1CCN(c2ccc(OC(F)(F)F)c(Nc3ncc4c(n3)-c3c(c(C(N)=O)nn3CCO)CC4)c2)CC1 = 3.9

* * *

Assay: Half-life in male cynomolgus monkey at 5 mg/kg, iv by LC-MS analysis
Assay type: ADME, organism-based, Macaca fascicularis
Settings: in vivo
MEASURED ATTRIBUTE: half-life (h)

- CN1CCN(c2ccc(OC(F)(F)F)c(Nc3ncc4c(n3)-c3c(c(C(N)=O)nn3CCO)CC4)c2)CC1 [ONVANSERTIB]: 5

* * *

Test: Inhibition of SULU1 (unknown origin) in presence of [gamma-33P]ATP
Design: species or system Homo sapiens
pIC50: −log10 of the molar value.
MEASURED ATTRIBUTE: pIC50

- CN1CCN(c2ccc(OC(F)(F)F)c(Nc3ncc4c(n3)-c3c(c(C(N)=O)nn3CCO)CC4)c2)CC1: < 5.00
